# key: entry, value: CC50
test system: PANC-1; assay: SRB colorimetric cell growth inhibition assay, PANC-1; type: cell-based; settings: Homo sapiens, PANC-1, read-out: LC50 PANC-1, PANC-1; cell killing (cytotoxic effect)
Please respond with the number in µM and leave the unit unwritten.

{"MOLECULE": "COc1cc(-c2c3n(c4c(=O)oc5cc(OC(=O)[C@@H](N)C(C)C)c(OC)cc5c24)CCc2c-3cc(OC)c(OC)c2OC(=O)[C@@H](N)C(C)C)ccc1OC(=O)[C@@H](N)C(C)C [Compound 128]", "ENDPOINT_LABEL": "CC50", "ASSAY_VALUE": 5.99}

API: value(readout=CC50, system=PANC-1) for record COc1cc(-c2c3c4cc(OC)c(OC(=O)[C@@H](N)CO)cc4oc(=O)c3n3ccc4c(OC(=O)[C@@H](N)CO)c(OC)c(OC)cc4c23)ccc1OC(=O)[C@@H](N)CO [Compound 9] 4.91

Entry COc1cc(-c2c3n(c4c(=O)oc5cc(OC(=O)[C@@H](N)C(C)C)c(OC)cc5c24)CCc2cc(OC(=O)[C@@H](N)C(C)C)c(OC)cc2-3)ccc1OC(=O)[C@@H](N)C(C)C [Compound 135] , system PANC-1: what CC50 was measured? 8.76

----------
tested on: HeLa; experiment: SRB colorimetric cell growth inhibition assay, HeLa; type: cell-based; details: HELA; cell killing (cytotoxic effect); read-out: LC50 HELA
ENDPOINT_LABEL: CC50 (µM)
Number in µM, nothing else.

Answered examples (3):
{"MOLECULE": "COc1cc(-c2c3c4cc(OC)c(OC(=O)[C@H](C)N)cc4oc(=O)c3n3ccc4cc(O)c(OC)cc4c23)ccc1O.Cl", "TESTED_SYSTEM": "HeLa", "UNITS_SYMBOL": "µM", "CC50": 1.4}
{"MOLECULE": "COc1cc2c(cc1O)oc(=O)c1c2c(-c2ccc(OC(=O)[C@H](C)N)c(OC)c2)c2c3cc(OC)c(O)cc3ccn21.Cl", "TESTED_SYSTEM": "HeLa", "UNITS_SYMBOL": "µM", "CC50": 1.24}
{"MOLECULE": "COc1cc(-c2c3c4cc(OC)c(OC(=O)[C@H](C)N)cc4oc(=O)c3n3ccc4c(OC(=O)[C@H](C)N)c(OC)c(OC)cc4c23)ccc1OC(=O)[C@H](C)N [Compound 16]", "TESTED_SYSTEM": "HeLa", "UNITS_SYMBOL": "µM", "CC50": 0.703}

Let's switch to this molecule now.
Query: CC50; subject: COc1cc(-c2c3c4cc(OC)c(OC(=O)[C@H](C)N)cc4oc(=O)c3n3ccc4c(OC(=O)[C@H](C)N)c(OC)c(OC)cc4c23)ccc1OC(=O)[C@H](C)N [Compound 191] 8.63

----------
system: SKOV-3; assay: SRB colorimetric cell growth inhibition assay, SKOV-3; assay type: cell-based; details: Homo sapiens, SK-OV-3, SKOV-3; GI=growth inhibition; read-out: GI50 SKOV-3
Mark each entry y if its GI50 sits below 1000 nM, and n for all others.

Use the examples below as a reference point.
{"SMILES_ENTRY": "COc1cc(-c2c3n(c4c(=O)oc5cc(O)c(OC)cc5c24)CCc2c-3cc(OC)c(OC)c2O)ccc1O", "GROUP_LABEL": "n"}
{"SMILES_ENTRY": "COc1cc(-c2c3n(c4c(=O)oc5cc(OC(=O)[C@@H](N)Cc6c[nH]c7ccccc67)c(OC)cc5c24)CCc2cc(OC(=O)[C@@H](N)Cc4c[nH]c5ccccc45)c(OC)cc2-3)ccc1OC(=O)[C@@H](N)Cc1c[nH]c2ccccc12", "GROUP_LABEL": "n"}
{"SMILES_ENTRY": "COc1cc2ccn3c(c(-c4ccc(OC(=O)[C@@H](N)C(C)C)c(OC)c4)c4c5cc(OC)c(OC(=O)[C@@H](N)C(C)C)cc5oc(=O)c43)c2cc1OC", "GROUP_LABEL": "y"}

Hello, I'm reviewing records and need to know if GI50 of COc1cc(-c2c3c4cc(OC)c(OC(=O)[C@@H](NC(=O)OC(C)(C)C)C(C)C)cc4oc(=O)c3n3ccc4cc(OC(=O)[C@@H](NC(=O)OC(C)(C)C)C(C)C)c(OC)cc4c23)ccc1OC(=O)[C@@H](NC(=O)OC(C)(C)C)C(C)C is below 1000 nM. Could you check? y

Lab note: GI50 threshold 1000 nM. Does this compound come in strictly under it? COc1cc2ccn3c(c(-c4ccc(OC(=O)[C@@H](N)Cc5ccccc5)c(OC)c4)c4c5cc(OC)c(OC(=O)[C@@H](N)Cc6ccccc6)cc5oc(=O)c43)c2cc1OC n

Does COc1cc(-c2c3n(c4c(=O)oc5cc(OC(=O)[C@H](N)C(C)C)c(OC)cc5c24)CCc2cc(OC(=O)[C@H](N)C(C)C)c(OC)cc2-3)ccc1OC(=O)[C@H](N)C(C)C have GI50 strictly under 1000 nM? n

Hello, is GI50 of the following compound strictly smaller than 1000 nM? COc1cc(-c2c3n(c4c(=O)oc5cc(OC(=O)[C@H](NC(=O)OC(C)(C)C)C(C)C)c(OC)cc5c24)CCc2cc(OC(=O)[C@H](NC(=O)OC(C)(C)C)C(C)C)c(OC)cc2-3)ccc1OC(=O)[C@H](NC(=O)OC(C)(C)C)C(C)C n

----------
system: LoVo-Dox; test: SRB colorimetric cell growth inhibition assay, LoVo-Dox (MDR); format: cell-based; conditions: Homo sapiens, LOVO-DOX; GI=growth inhibition; read-out: GI50 LOVO-DOX
# 1 (yes) = GI50 below 0.3 µM (exclusive); 0 (no) = GI50 at/above 0.3 µM

Would you please look over these solved cases?
{"SMILES_ENTRY": "COc1cc(-c2c3c4cc(OC)c(OC(=O)[C@@H](N)Cc5ccccc5)cc4oc(=O)c3n3ccc4cc(OC(=O)[C@@H](N)Cc5ccccc5)c(OC)cc4c23)ccc1OC(=O)[C@@H](N)Cc1ccccc1", "TESTED_SYSTEM": "LoVo-Dox", "GROUP_LABEL": "1 (yes)"}
{"SMILES_ENTRY": "COc1cc(-c2c3n(c4c(=O)oc5cc(OC(=O)CCc6ccccc6)c(OC)cc5c24)CCc2cc(OC(=O)CCc4ccccc4)c(OC)cc2-3)ccc1OC(=O)CCc1ccccc1", "TESTED_SYSTEM": "LoVo-Dox", "GROUP_LABEL": "0 (no)"}
{"SMILES_ENTRY": "COc1cc(-c2c3c4cc(OC)c(O)cc4oc(=O)c3n3ccc4c([N+](=O)[O-])cccc4c23)ccc1O", "TESTED_SYSTEM": "LoVo-Dox", "GROUP_LABEL": "0 (no)"}
{"SMILES_ENTRY": "COc1cc(-c2c3c4cc(OC)c(OC(=O)[C@@H](NC(=O)OC(C)(C)C)C(C)C)cc4oc(=O)c3n3ccc4cc(OC(=O)[C@@H](NC(=O)OC(C)(C)C)C(C)C)c(OC)cc4c23)ccc1OC(=O)[C@@H](NC(=O)OC(C)(C)C)C(C)C", "TESTED_SYSTEM": "LoVo-Dox", "GROUP_LABEL": "0 (no)"}

# check: GI50 < 0.3 µM for COc1cc(-c2c3c4cc(OC)c(OC(=O)[C@@H](N)CC(C)C)cc4oc(=O)c3n3ccc4cc(OC(=O)[C@@H](N)CC(C)C)c(OC)cc4c23)ccc1OC(=O)[C@@H](N)CC(C)C 0 (no)

----------
The entries below are paired with their reported GI50.
system: HT-29; assay: SRB colorimetric cell growth inhibition assay, HT-29; format: cell-based; settings: HT-29; GI=growth inhibition; read-out: GI50 HT-29
Dear colleague, please return just the value in nM, with no unit written.

Worked cases, GI50 given:
{"COMPOUND": "COc1cc2ccn3c(c(-c4ccc(OC(=O)[C@@H](N)Cc5ccccc5)c(OC)c4)c4c5cc(OC)c(OC(=O)[C@@H](N)Cc6ccccc6)cc5oc(=O)c43)c2cc1OC [Compound 18]", "GI50 / nM": 819}
{"COMPOUND": "COc1cc(-c2c3n(c4c(=O)oc5cc(OC(=O)[C@@H](N)C(C)C)c(OC)cc5c24)CCc2cc(OC(=O)[C@@H](N)C(C)C)c(OC)cc2-3)ccc1OC(=O)[C@@H](N)C(C)C [Compound 37]", "GI50 / nM": 91.2}
{"COMPOUND": "COc1cc2c(cc1O)oc(=O)c1c2c(-c2ccc(OC(=O)[C@H](C)N)c(OC)c2)c2c3cc(OC)c(O)cc3ccn21.Cl [Compound 238]", "GI50 / nM": 2650}
{"COMPOUND": "COc1cc(-c2c3c4cc(OC)c(OC(=O)[C@H](C)N)cc4oc(=O)c3n3ccc4c(OC(=O)[C@H](C)N)c(OC)c(OC)cc4c23)ccc1OC(=O)[C@H](C)N [Compound 191]", "GI50 / nM": 6180}

From here, focus on the item given below.
# lookup: GI50 of COc1cc(-c2c3c4cc(OC)c(OC(=O)[C@@H](N)C(C)C)cc4oc(=O)c3n3ccc4c(OC(=O)[C@@H](N)C(C)C)c(OC)c(OC)cc4c23)ccc1OC(=O)[C@@H](N)C(C)C [Compound 190] 2990
